Sourced from paper doi:10.1101/2022.11.11.516135v3

- target system: G3BP1-NTF2 (residues 1-139); NTF2-like domain of G3BP1 (Homo sapiens, UniProt Q13283)
- Sequence (Q13283 1-139): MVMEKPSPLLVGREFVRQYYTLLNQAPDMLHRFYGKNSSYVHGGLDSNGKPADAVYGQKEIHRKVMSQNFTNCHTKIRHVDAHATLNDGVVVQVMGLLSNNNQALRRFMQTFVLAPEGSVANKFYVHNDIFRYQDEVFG
- assay procedure: biochemical
measured quantity: Kd
Form field: result (number plus unit)

Example molecules with recorded Kd:
molecule	Kd
COc1ccc(Br)cc1S(=O)(=O)NC(=O)/C=C/c1ccccc1Cc1ccc2ccccc2c1	18.7 µM
CN1C[C@H](C(=O)N[C@]2(C)O[C@@]3(O)[C@@H]4CCCN4C(=O)[C@H](Cc4ccccc4)N3C2=O)C[C@@H]2c3cccc4[nH]cc(c34)C[C@H]21 [DHD, Dihydroergotamine]	54 µM
CC[C@H](NC(=O)c1c(C)c(-c2ccccc2)nc2ccccc12)c1ccccc1	66 µM
O=C1NCN(c2ccccc2)C12CCN(CCCC(c1ccc(F)cc1)c1ccc(F)cc1)CC2	71.4 µM

Please look at the following molecule next.
INPUT: Can you share its Kd? I mean this molecule: CNC(=O)c1c(F)cccc1Nc1nc(Nc2cc3c(cc2OC)CCN3C(=O)CN(C)C)nc2[nH]ccc12 [GSK, GSK1838705A]
OUTPUT: 98 µM
